Provenance of the data: patent US20250011363A1

molecular target: acetylcholine receptor; test: SPR, receptor immobilised on chip, peptide at 10 µM
Listed here: items and their measured Binding affinity.
readout kind: Binding affinity (RU)

RSRLRR [6mer-2-472]	148
RSRTRR [6mer-2-477]	135
RVFLKK [6mer-2-508]	121
KGFRKK [6mer-2-528]	151
